All values here come from ChEMBL document CHEMBL5727880.

Target: Rho-associated protein kinase 2 (Homo sapiens)
Sequence (O75116 whole entry): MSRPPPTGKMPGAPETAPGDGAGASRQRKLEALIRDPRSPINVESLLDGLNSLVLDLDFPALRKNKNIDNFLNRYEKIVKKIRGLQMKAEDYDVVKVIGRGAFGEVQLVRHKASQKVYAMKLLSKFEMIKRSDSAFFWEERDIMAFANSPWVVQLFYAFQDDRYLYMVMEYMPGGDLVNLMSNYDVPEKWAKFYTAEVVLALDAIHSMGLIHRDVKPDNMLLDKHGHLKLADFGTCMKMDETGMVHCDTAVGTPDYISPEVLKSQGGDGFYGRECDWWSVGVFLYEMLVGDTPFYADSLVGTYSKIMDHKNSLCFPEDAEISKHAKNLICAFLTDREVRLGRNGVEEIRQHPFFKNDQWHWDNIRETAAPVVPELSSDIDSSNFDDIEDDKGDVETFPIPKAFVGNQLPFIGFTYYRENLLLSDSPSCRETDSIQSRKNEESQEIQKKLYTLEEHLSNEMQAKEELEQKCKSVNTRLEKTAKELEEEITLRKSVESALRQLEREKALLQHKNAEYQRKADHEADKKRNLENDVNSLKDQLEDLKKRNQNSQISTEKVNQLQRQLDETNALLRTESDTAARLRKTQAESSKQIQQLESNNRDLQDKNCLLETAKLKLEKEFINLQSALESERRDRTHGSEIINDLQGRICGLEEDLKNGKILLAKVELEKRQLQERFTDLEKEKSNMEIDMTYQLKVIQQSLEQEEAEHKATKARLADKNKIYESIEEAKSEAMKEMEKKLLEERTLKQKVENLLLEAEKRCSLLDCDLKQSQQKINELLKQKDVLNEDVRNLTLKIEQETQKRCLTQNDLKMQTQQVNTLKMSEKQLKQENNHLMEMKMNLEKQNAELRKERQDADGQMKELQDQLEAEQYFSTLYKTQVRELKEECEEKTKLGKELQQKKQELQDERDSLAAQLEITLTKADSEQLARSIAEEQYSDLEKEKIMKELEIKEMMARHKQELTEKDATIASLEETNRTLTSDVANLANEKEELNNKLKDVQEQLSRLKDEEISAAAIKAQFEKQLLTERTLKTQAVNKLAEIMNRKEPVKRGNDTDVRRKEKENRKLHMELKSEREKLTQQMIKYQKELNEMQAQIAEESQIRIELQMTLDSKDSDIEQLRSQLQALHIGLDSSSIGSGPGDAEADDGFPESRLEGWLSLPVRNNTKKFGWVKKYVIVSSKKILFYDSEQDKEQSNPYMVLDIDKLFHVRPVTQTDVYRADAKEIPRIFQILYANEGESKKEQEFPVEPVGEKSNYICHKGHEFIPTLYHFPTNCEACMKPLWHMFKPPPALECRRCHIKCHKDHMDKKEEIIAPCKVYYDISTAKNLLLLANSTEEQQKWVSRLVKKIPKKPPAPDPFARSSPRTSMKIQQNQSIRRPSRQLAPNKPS
Assay: Kinase Inhibition Assay: The following assay protocol is for measuring the phosphorylation of a peptide substrate (FAM-[…]-OH wherein FAM is carboxyfluorescein). The peptide is >98% purity by Capillary Electrophoresis. The peptide is phosphorylated by the protein kinase ROCK1 or ROCK2. The ROCK1 or ROCK2 enzyme, substrate, and cofactors (ATP and Mg2+) are combined in a well of a microtiter plate and incubated for 3 hours at 25° C. in the presence or absence of an inhibitor compound. At the end of the incubation, the reaction is quenched by the addition of an EDTA-containing buffer. The substrate and product are separated and quantified electrophoretically using the microfluidic-based LABCHIP® 3000 Drug Discovery System from Caliper Life Sciences (Hopkinton, Mass.).The components of the assay mixture are:100 mM HEPES, pH 7.50.1% BSA0.01% Triton X-1001 mM DTT10 mM MgCl210 μM Sodium Orthovanadate10 LM Beta-Glycerophosphate5 μM ATP (for ROCK1) or 7 μM ATP (for ROCK2)1% DMSO (from compound)1.25 μM FAM-[…]-OH3 nM ROCK1 or 2.5 nM ROCK2 enzymeSubstrate and product peptides present in each sample are separated electrophoretically using the LABCHIP® 3000 capillary electrophoresis instrument. As substrate and product peptides are separated two peaks of fluorescence are observed. Change in the relative fluorescence intensity of the substrate and product peaks is the parameter measured reflecting enzyme activity. Capillary electrophoregramms (RDA acquisition files) are analyzed using HTS Well Analyzer software (Caliper Life Sciences, Hopkinton, Mass.). The kinase activity in each sample is determined as the product to sum ratio (PSR): P/(S+P), where P is the peak height of the product peptide and S is the peak height of the substrate peptide. For each compound, enzyme activity is measured at various concentrations (12 concentrations of compound spaced by 3× dilution intervals).
value_kind: pIC50
Numbers only, as −log10 of the molar value.

Input line: Could you share which pIC50 value was measured for C[C@@H](NC(=O)c1ccc(-c2ccncc2)cc1)c1cccc(C(=O)NC2CCCC2)c1 ?
Output line: 8.92
